Origin of values: ChEMBL document CHEMBL6087445

Assay protocol: Microsomal stability in rat liver microsomes assessed as parent compound remaining measured after 30 mins by LC-MS/MS analysis
Type: ADME, Microsome
Condition description: read-out: Stability
Endpoint name: remaining at 0.5 h (%)

Cn1ccc(-c2ccc3nccc(N[C@@H]4CCNC4)c3n2)cc1=O 94.3
CNC(=O)c1ccc(-c2ccc3nccc(NC4CCNCC4)c3n2)cn1 97.4
CN1CCC(Nc2ccnc3ccc(-c4ccc(C(=O)NCCO)nc4)nc23)CC1 94.2
